# target: T1, Sortilin SORTECDBAP_hB06-10 (human/tetraodon chimera)
# T1 construct: Shuffle construct: chimeric human/tetraodon Sortilin ECD with BAP tag
# T1 chain: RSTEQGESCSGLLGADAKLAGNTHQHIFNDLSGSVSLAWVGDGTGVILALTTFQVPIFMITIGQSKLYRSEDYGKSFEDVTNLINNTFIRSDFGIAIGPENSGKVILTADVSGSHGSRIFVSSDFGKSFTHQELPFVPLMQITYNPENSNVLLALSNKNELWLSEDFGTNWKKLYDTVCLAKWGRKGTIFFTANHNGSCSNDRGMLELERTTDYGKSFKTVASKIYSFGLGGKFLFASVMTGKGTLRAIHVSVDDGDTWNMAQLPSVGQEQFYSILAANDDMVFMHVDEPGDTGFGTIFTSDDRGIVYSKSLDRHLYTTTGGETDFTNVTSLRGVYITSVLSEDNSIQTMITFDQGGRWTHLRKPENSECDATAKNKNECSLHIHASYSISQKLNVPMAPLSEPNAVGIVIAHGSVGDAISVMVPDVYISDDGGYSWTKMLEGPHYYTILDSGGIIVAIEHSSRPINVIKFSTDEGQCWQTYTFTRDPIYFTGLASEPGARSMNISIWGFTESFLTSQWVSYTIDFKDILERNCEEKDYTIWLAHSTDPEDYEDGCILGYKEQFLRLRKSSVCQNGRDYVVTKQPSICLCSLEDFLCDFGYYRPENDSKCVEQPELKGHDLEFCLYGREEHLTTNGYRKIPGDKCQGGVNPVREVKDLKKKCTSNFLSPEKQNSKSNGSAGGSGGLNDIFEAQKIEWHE
# protocol_details: BLI (Octet384RED)
Reported EC50 values follow for various binders

{"columns": ["binder", "EC50 / ng/mL"],
 "data": [
  ["IgG1-6003-972 (antibody, V domains shown, also called Antibody 6003-972) VH: QVQLVESGGGVVQPGRSLRLSCAASGFTFSDYAMHWVRRAPGKGLEWVVVISYDGSNKYYADSVKGRFTISRDNSKNTLYLQMNSLRAEDTAVYYCARDPSGGWYFDLWGRGTLVTVSS VL: EIVLTQSPATLSLSPGERATLSCRASQSVSSYLAWYQQKPGQAPRLLIYDASNRATGIPARFSGSGSGTDFTLTISSLEPEDFALYYCQQRSHWPRTFGQGTKVEIK", 1.12],
  ["Antibody 6003-822 (antibody, human IgG1, V domains shown) VH: EVQLLESGGGLVQPGESLTLSCAASGFTLSSYAMSWVRQAPGKGLEWVSSISGRLGTTYYAASVKGRFTISRDNSKNTLYLQMNSLRAEDTAIYSCAKAPSDAFDIWGQGTMVTVSS VL: EIVLTQSPATLSLSPGERATLSCRASQSVSSYLAWYQQKPGQAPRLLIYDASNRATGIPARFSGSGSGTDFTLTISSLEPEDFAVYYCQQRSNWPIFTFGPGTKVDIK", 1.49],
  ["Antibody 6003-799 (antibody, human IgG1, V domains shown) VH: QVQLVESGGGVVQPGRSLRLSCAASGFTFSSYGMHWVRQAPGKGLEWVTVISYDGSNKYYADSVKGRFTISRDNSKNTLYLQMNSLRAEDTAVYYCAKLTGDAFDIWGQGTMVTVSS VL: EIVLTQSPATLSLSPGERATLSCRASQSVSSYLVWYQQKPGQAPRLLIYHASNRATGIPARFSGSGSGTDFTLTISSLEPEDFAVYYCQQRSNWPRITFGQGTRLEIK", 2.63],
  ["Antibody 6003-886 (antibody, human IgG1, V domains shown) VH: QVQLVQSGAEVKKPGASVKVSCKASGYTFTKYGISWVRQAPGQGLEWMGWISAYNGNTNYAQKLQDRVTMTTDTFTSTAYMELRSLRSDDTAVYFCARDGPLTGDFTFYGMDVWGQGTTVTVSS VL: EIVLTQSPATLSLSPGERATLSCRASQSVSSYLAWYQQKPGQAPRLLIYDASNRATGIPARFSGSGSGTDFTLTISSLEPEDFAVYYCQQRSNWPPFTFGPGTKVDIK", 2.44]
]}
